These entries and their values trace back to patent US20260109761A1.

- ASSAY_SYSTEM: T1, huZIP12-ECD-GST (human, UniProt Q504Y0 24-202)
- T1 construct: also called hZIP12-ECD-GST; human ZIP12-ECD-GST; not shown: glutathione S-transferase (GST) tag
- T1 sequence (Q504Y0 24-202): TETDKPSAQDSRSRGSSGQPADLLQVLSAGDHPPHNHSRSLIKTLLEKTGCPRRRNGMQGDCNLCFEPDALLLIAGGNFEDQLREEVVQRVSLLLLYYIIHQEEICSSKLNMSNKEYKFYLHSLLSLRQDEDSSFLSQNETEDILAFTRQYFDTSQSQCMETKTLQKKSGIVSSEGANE
- METHOD_NOTES: SPR single cycle kinetics (Biacore): mAb captured on protein A, huZIP12-ECD-GST injected at 2.34-600 nM, extended dissociation
Property: Kd; scope: individual binders
Supply the numeric figure in pM, leaving out any unit text.

H3_W99H_L2 (antibody, V domains shown, Fc null human IgG1 / human kappa) VH: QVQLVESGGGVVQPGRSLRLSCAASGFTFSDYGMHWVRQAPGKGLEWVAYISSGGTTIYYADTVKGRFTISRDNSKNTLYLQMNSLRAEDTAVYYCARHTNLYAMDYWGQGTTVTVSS VL: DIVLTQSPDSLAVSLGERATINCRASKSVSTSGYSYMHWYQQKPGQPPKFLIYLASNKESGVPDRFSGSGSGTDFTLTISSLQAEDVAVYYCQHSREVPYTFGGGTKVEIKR :: 339
H2_G66Q_L2 (antibody, V domains shown, Fc null human IgG1 / human kappa) VH: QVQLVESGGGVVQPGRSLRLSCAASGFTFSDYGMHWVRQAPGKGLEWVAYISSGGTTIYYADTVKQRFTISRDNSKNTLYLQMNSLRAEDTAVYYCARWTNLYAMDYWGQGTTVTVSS VL: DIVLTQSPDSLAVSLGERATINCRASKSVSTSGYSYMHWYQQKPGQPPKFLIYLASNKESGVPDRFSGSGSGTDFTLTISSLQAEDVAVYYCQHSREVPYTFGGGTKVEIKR :: 1200
H2_T57H_L1 (antibody, V domains shown, Fc null human IgG1 / human kappa) VH: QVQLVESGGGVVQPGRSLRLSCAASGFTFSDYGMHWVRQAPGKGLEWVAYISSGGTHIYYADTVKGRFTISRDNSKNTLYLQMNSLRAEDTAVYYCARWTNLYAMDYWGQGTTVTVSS VL: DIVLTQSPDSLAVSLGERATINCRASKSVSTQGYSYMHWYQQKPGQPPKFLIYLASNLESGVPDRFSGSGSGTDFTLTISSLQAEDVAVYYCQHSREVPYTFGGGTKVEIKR :: 971

*Q* So what does the record say about Kd for H2_T63Y_VL-par (antibody, V domains shown, Fc null human IgG1 / human kappa) VH: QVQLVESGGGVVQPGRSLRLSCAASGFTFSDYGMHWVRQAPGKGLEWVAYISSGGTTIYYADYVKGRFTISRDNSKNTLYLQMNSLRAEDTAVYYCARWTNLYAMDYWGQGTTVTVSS VL: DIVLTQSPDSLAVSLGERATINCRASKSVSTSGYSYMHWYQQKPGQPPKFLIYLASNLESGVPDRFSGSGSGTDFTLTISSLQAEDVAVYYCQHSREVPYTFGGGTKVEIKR ?
*A* 868

*Q* So what does the record say about Kd for H2_T57H_VL-par (antibody, V domains shown, Fc null human IgG1 / human kappa) VH: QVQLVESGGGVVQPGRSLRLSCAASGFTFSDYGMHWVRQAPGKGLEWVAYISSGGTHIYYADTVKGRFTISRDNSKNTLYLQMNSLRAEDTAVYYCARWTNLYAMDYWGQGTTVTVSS VL: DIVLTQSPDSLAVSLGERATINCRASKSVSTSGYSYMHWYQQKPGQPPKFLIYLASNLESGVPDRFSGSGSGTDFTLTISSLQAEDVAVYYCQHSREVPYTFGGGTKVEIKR ?
*A* 792
